Every entry's value here was drawn from the NIST ThermoML archive (doi:10.1021/je200628n).

# measurement.notes: activity coefficient (dimensionless); of the first substance listed, at infinite dilution; xn = mol fraction of the nth substance listed
# particulars: 353.22 K; 101 kPa; Liquid; Chromatography; x1 = 0
# activity coefficient per entry
value.type: activity coefficient

[[record]]
compound = "CCOC(C)=O [ethyl acetate] + NCCCCCCCCCCN"
recorded_measurement = 0.868

[[record]]
compound = "ClCCl [dichloromethane] + NCCCCCCCCCCN"
recorded_measurement = 0.985

[[record]]
compound = "CCCCCC [hexane] + NCCCCCCCCCCN"
recorded_measurement = 4.41

[[record]]
compound = "C=CCCCCC [1-heptene] + NCCCCCCCCCCN"
recorded_measurement = 2.97

[[record]]
compound = "C=CCCCCCCCC [1-decene] + NCCCCCCCCCCN"
recorded_measurement = 3.57

[[record]]
compound = "CCOCC [diethyl ether] + NCCCCCCCCCCN"
recorded_measurement = 3.64


###

# measurement.notes: activity coefficient (dimensionless); of the first substance listed, at infinite dilution; xn = mol fraction of the nth substance listed
# particulars: 348.25 K; 101 kPa; Liquid; Chromatography; x1 = 0
# label = 1 (yes) if activity coefficient >= 2 else 0 (no)

[[record]]
molecule = "CCCCCCCC [octane] + NCCCCCCCCCCCCN"
assigned_category = "1 (yes)"

[[record]]
molecule = "C=CCCCC [hex-1-ene] + NCCCCCCCCCCCCN"
assigned_category = "1 (yes)"

[[record]]
molecule = "ClCCl [dichloromethane] + NCCCCCCCCCCCCN"
assigned_category = "0 (no)"

[[record]]
molecule = "c1ccccc1 [benzene] + NCCCCCCCCCCCCN"
assigned_category = "1 (yes)"

[[record]]
molecule = "CCOCC [diethyl ether] + NCCCCCCCCCCCCN"
assigned_category = "1 (yes)"

[[record]]
molecule = "CCCCCC [hexane] + NCCCCCCCCCCCCN"
assigned_category = "1 (yes)"

[[record]]
molecule = "CCOC(C)=O [ethyl acetate] + NCCCCCCCCCCCCN"
assigned_category = "0 (no)"

[[record]]
molecule = "CCO [ethanol] + NCCCCCCCCCCCCN"
assigned_category = "0 (no)"

[[record]]
molecule = "CO [methanol] + NCCCCCCCCCCCCN"
assigned_category = "0 (no)"

[[record]]
molecule = "CCCCCCCl [1-chlorohexane] + NCCCCCCCCCCCCN"
assigned_category = "1 (yes)"

[[record]]
molecule = "CCCCCl [1-chlorobutane] + NCCCCCCCCCCCCN"
assigned_category = "1 (yes)"

[[record]]
molecule = "C=CCCC [1-pentene] + NCCCCCCCCCCCCN"
assigned_category = "1 (yes)"

[[record]]
molecule = "ClC(Cl)(Cl)Cl [tetrachloromethane] + NCCCCCCCCCCCCN"
assigned_category = "1 (yes)"

[[record]]
molecule = "CCCCCCCCCC [decane] + NCCCCCCCCCCCCN"
assigned_category = "1 (yes)"

[[record]]
molecule = "C=CCCCCCC [oct-1-ene] + NCCCCCCCCCCCCN"
assigned_category = "1 (yes)"


###

# measurement.notes: activity coefficient (dimensionless); of the first substance listed, at infinite dilution; xn = mol fraction of the nth substance listed
# particulars: 353.15 K; 101 kPa; Liquid; Chromatography; x1 = 0
Hi! Just check whether activity coefficient is below 3. Below gives MET, equal or above gives NOT MET.

[[record]]
molecule = "C=CCCCCC [1-heptene] + NCCCCCCCCCCCCN"
assigned_category = "NOT MET"

[[record]]
molecule = "CCOCC [diethyl ether] + NCCCCCCCCCCCCN"
assigned_category = "NOT MET"

[[record]]
molecule = "CCc1ccccc1 [ethylbenzene] + NCCCCCCCCCCCCN"
assigned_category = "MET"

[[record]]
molecule = "CCCO [propan-1-ol] + NCCCCCCCCCCCCN"
assigned_category = "MET"

[[record]]
molecule = "Cc1ccccc1 [toluene] + NCCCCCCCCCCCCN"
assigned_category = "MET"

[[record]]
molecule = "CCCCCCCCCC [decane] + NCCCCCCCCCCCCN"
assigned_category = "NOT MET"

[[record]]
molecule = "CCCCCCC [heptane] + NCCCCCCCCCCCCN"
assigned_category = "NOT MET"

[[record]]
molecule = "c1ccccc1 [benzene] + NCCCCCCCCCCCCN"
assigned_category = "MET"

[[record]]
molecule = "CCCCC [pentane] + NCCCCCCCCCCCCN"
assigned_category = "NOT MET"

[[record]]
molecule = "CCO [ethanol] + NCCCCCCCCCCCCN"
assigned_category = "MET"

[[record]]
molecule = "C=CCCCCCCCC [1-decene] + NCCCCCCCCCCCCN"
assigned_category = "NOT MET"


###

# measurement.notes: activity coefficient (dimensionless); of the first substance listed, at infinite dilution; xn = mol fraction of the nth substance listed
# particulars: 363.21 K; 101 kPa; Liquid; Chromatography; x1 = 0
# label = criterion met if activity coefficient >= 3 else criterion not met

[[record]]
molecule = "CCCCCCC [heptane] + NCCCCCCCCCCCCN"
assigned_category = "criterion met"

[[record]]
molecule = "C=CCCCCC [1-heptene] + NCCCCCCCCCCCCN"
assigned_category = "criterion met"

[[record]]
molecule = "CCCO [propan-1-ol] + NCCCCCCCCCCCCN"
assigned_category = "criterion not met"

[[record]]
molecule = "CCCCCCl [1-chloropentane] + NCCCCCCCCCCCCN"
assigned_category = "criterion not met"

[[record]]
molecule = "ClCCl [dichloromethane] + NCCCCCCCCCCCCN"
assigned_category = "criterion not met"

[[record]]
molecule = "CCCCO [butan-1-ol] + NCCCCCCCCCCCCN"
assigned_category = "criterion not met"

[[record]]
molecule = "C=CCCCCCC [oct-1-ene] + NCCCCCCCCCCCCN"
assigned_category = "criterion met"

[[record]]
molecule = "CCCCCC [hexane] + NCCCCCCCCCCCCN"
assigned_category = "criterion met"

[[record]]
molecule = "CCc1ccccc1 [ethylbenzene] + NCCCCCCCCCCCCN"
assigned_category = "criterion not met"

[[record]]
molecule = "CCCCCCCC [octane] + NCCCCCCCCCCCCN"
assigned_category = "criterion met"

[[record]]
molecule = "CCCCOC(C)=O [butyl ethanoate] + NCCCCCCCCCCCCN"
assigned_category = "criterion not met"

[[record]]
molecule = "C=CCCCCCCCC [1-decene] + NCCCCCCCCCCCCN"
assigned_category = "criterion met"


###

# measurement.notes: activity coefficient (dimensionless); of the first substance listed, at infinite dilution; xn = mol fraction of the nth substance listed
# particulars: 338.2 K; 101 kPa; Liquid; Chromatography; x1 = 0
Hi! Just check whether activity coefficient is below 1. Below gives Met, equal or above gives Not met.

[[record]]
compound = "CO [methanol] + NCCCCCCCCCCN"
assigned_category = "Met"

[[record]]
compound = "CCOCC [diethyl ether] + NCCCCCCCCCCN"
assigned_category = "Not met"

[[record]]
compound = "CCCCOC(C)=O [butyl ethanoate] + NCCCCCCCCCCN"
assigned_category = "Not met"

[[record]]
compound = "CCO [ethanol] + NCCCCCCCCCCN"
assigned_category = "Met"

[[record]]
compound = "ClCCl [dichloromethane] + NCCCCCCCCCCN"
assigned_category = "Not met"

[[record]]
compound = "CCCCCCl [1-chloropentane] + NCCCCCCCCCCN"
assigned_category = "Not met"


###

# measurement.notes: activity coefficient (dimensionless); of the first substance listed, at infinite dilution; xn = mol fraction of the nth substance listed
# particulars: 353.22 K; 101 kPa; Liquid; Chromatography; x1 = 0
# activity coefficient per entry
value.type: activity coefficient

[[record]]
compound = "CCc1ccccc1 [ethylbenzene] + NCCCCCCCCCCN"
value_type = "activity coefficient"
recorded_measurement = 1.72

[[record]]
compound = "CCCCO [butan-1-ol] + NCCCCCCCCCCN"
value_type = "activity coefficient"
recorded_measurement = 0.815

[[record]]
compound = "CCCCCCCCCC [decane] + NCCCCCCCCCCN"
value_type = "activity coefficient"
recorded_measurement = 4.78

[[record]]
compound = "ClC(Cl)(Cl)Cl [tetrachloromethane] + NCCCCCCCCCCN"
value_type = "activity coefficient"
recorded_measurement = 1.98

[[record]]
compound = "C=CCCCC [hex-1-ene] + NCCCCCCCCCCN"
value_type = "activity coefficient"
recorded_measurement = 2.92

[[record]]
compound = "CCCOC(C)=O [propyl ethanoate] + NCCCCCCCCCCN"
value_type = "activity coefficient"
recorded_measurement = 0.991

[[record]]
compound = "CCCCCCCC [octane] + NCCCCCCCCCCN"
value_type = "activity coefficient"
recorded_measurement = 4.55

[[record]]
compound = "CO [methanol] + NCCCCCCCCCCN"
value_type = "activity coefficient"
recorded_measurement = 0.682

[[record]]
compound = "CCCCCl [1-chlorobutane] + NCCCCCCCCCCN"
value_type = "activity coefficient"
recorded_measurement = 2.01

[[record]]
compound = "CCCCCCCl [1-chlorohexane] + NCCCCCCCCCCN"
value_type = "activity coefficient"
recorded_measurement = 2.54

[[record]]
compound = "CCCCCCl [1-chloropentane] + NCCCCCCCCCCN"
value_type = "activity coefficient"
recorded_measurement = 2.23

[[record]]
compound = "CCCCOC(C)=O [butyl ethanoate] + NCCCCCCCCCCN"
value_type = "activity coefficient"
recorded_measurement = 1.03

[[record]]
compound = "Cc1ccccc1 [toluene] + NCCCCCCCCCCN"
value_type = "activity coefficient"
recorded_measurement = 2.13

[[record]]
compound = "CCO [ethanol] + NCCCCCCCCCCN"
value_type = "activity coefficient"
recorded_measurement = 0.718

[[record]]
compound = "c1ccccc1 [benzene] + NCCCCCCCCCCN"
value_type = "activity coefficient"
recorded_measurement = 1.58

[[record]]
compound = "C=CCCCCCC [oct-1-ene] + NCCCCCCCCCCN"
value_type = "activity coefficient"
recorded_measurement = 3.45

[[record]]
compound = "C=CCCC [1-pentene] + NCCCCCCCCCCN"
value_type = "activity coefficient"
recorded_measurement = 2.88

[[record]]
compound = "CCCO [propan-1-ol] + NCCCCCCCCCCN"
value_type = "activity coefficient"
recorded_measurement = 0.772

[[record]]
compound = "CCCCCCC [heptane] + NCCCCCCCCCCN"
value_type = "activity coefficient"
recorded_measurement = 4.46

